Biological target: human GLP-1 receptor (human, UniProt P43220 24-463)
Test: cell-based or functional assay
Observation type: GLP-1 activity (EC50, pM); CRE luciferase reporter
Give the quantity in pM, number only.

Compound 66 (ligand, Moiety B (HOOC-(CH2)20-CO-gGlu-2XADO-EDA-CO-CH2) on 51C and 225C of fusion polypeptide) HGEGTFTSDVSSYLEEQAAKEFIAWLVKGGGGSAPGSPAGSPTGSAPGSPCHPIPDSSPLLQFGGQVRQRYLYTDDAQQTEAHLEIREDGTVGGAADQSPESLLQLKALKPGVIQILGVKTSRFLCQRPDGALYGSLHFDPEACSFRELLLEDGYNVYQSEAHGLPLHLPGQKSPHRDPAPRGPARFLPLPGLPPALPEPPGILAPQPPDVGSSDPLSLVGGSQCRSPSYES :: 41.3
Compound 63 (ligand, Moiety B (HOOC-(CH2)20-CO-gGlu-2XADO-EDA-CO-CH2) on 51C and 222C of fusion polypeptide) HGEGTFTSDVSSYLEEQAAKEFIAWLVKGGGGGGGSGGGGSGGGGSGGGGCHPIPDSSPLLQFGGQVRQRYLYTDDAQQTEAHLEIREDGTVGGAADQSPESLLQLKALKPGVIQILGVKTSRFLCQRPDGALYGSLHFDPEACSFRELLLEDGYNVYQSEAHGLPLHLPGQKSPHRDPAPRGPARFLPLPGLPPALPEPPGILAPQPPDVGSSDPLSLVGCSQGRSPSYES :: 49.1

Reported GLP-1 activity (EC50, pM); CRE luciferase reporter of Compound 9 (ligand, Moiety A (HOOC-(CH2)16-CO-gGlu-2XADO) on 231K of fusion polypeptide) HGEGTFTSDVSSYLEEQAAREFIAWLVRGGGGGGGSGGGGSGGGGSGGGGSHPIPDSSPLLQFGGQVRQRYLYTDDAQQTEAHLEIREDGTVGGAADQSPESLLQLRALRPGVIQILGVRTSRFLCQRPDGALYGSLHFDPEACSFRELLLEDGYNVYQSEAHGLPLHLPGQRSPHRDPAPRGPARFLPLPGLPPALPEPPGILAPQPPDVGSSDPLSLVGGSQGRSPSYKS : 19.9
